Source: patent US8809315B2

- System: Pseudomonas aeruginosa (67/2B)2R.A. [DSM 18988]
- ASSAY_NOTES: MIC, broth microdilution (NCCLS M7-A6)
- Format: cell-based
- CONDITION: P. aeruginosa (67/2B)2R.A.; combinations of equal weights; IsoSensiTest Broth + 16 μg/mL 2,2'-bipyridyl
PROPERTY_MEASURED: Minimum Inhibitory Concentration (mg/L)
Write down the numeric answer in mg/L and omit the unit.

// below: answered molecules
SMI: C[C@@H](O)[C@H]1C(=O)N2C(C(=O)O)=C(SCCN=CN)C[C@H]12
MEASUREMENT_UNITS: mg/L
QUANTITATIVE_RESULT: 16
--
SMI: CC1(C)[C@H](NC(=O)/C(=N\OCc2cc(=O)c(O)cn2O)c2csc(N)n2)C(=O)N1OS(=O)(=O)O
MEASUREMENT_UNITS: mg/L
QUANTITATIVE_RESULT: 32

If you can, please state the reported Minimum Inhibitory Concentration value of C[C@@H](O)[C@H]1C(=O)N2C(C(=O)O)=C(S[C@@H]3CN[C@H](CNS(N)(=O)=O)C3)[C@H](C)[C@H]12 . 4

Give its Minimum Inhibitory Concentration value. Item: C[C@H]1[C@H](NC(=O)/C(=N\OC(C)(C)C(=O)O)c2csc(N)n2)C(=O)N1S(=O)(=O)O 4

May I ask what Minimum Inhibitory Concentration has been recorded for C[C@@H](O)[C@H]1C(=O)N2C(C(=O)O)=C(S[C@@H]3CN[C@H](C(=O)N(C)C)C3)[C@H](C)[C@H]12 ? 4

----------
- Tested on: Pseudomonas aeruginosa 6067 [DSM 18987]
- ASSAY_NOTES: MIC, broth microdilution (NCCLS M7-A6)
- Assay type: cell-based
- CONDITION: P. aeruginosa 6067; combinations of equal weights; IsoSensiTest Broth + 16 μg/mL 2,2'-bipyridyl
Minimum Inhibitory Concentration listing for selected molecules.
Report the figure in mg/L without appending any unit label.

SMI: C[C@@H](O)[C@H]1C(=O)N2C(C(=O)O)=C(S[C@@H]3CN[C@H](CNS(N)(=O)=O)C3)[C@H](C)[C@H]12
MEASUREMENT_UNITS: mg/L
Minimum Inhibitory Concentration: 16
--
SMI: CC1(C)[C@H](NC(=O)/C(=N\OCc2cc(=O)c(O)cn2O)c2csc(N)n2)C(=O)N1OS(=O)(=O)O
MEASUREMENT_UNITS: mg/L
Minimum Inhibitory Concentration: 16
--
SMI: C[C@@H](O)[C@H]1C(=O)N2C(C(=O)O)=C(S[C@@H]3CN[C@H](C(=O)N(C)C)C3)[C@H](C)[C@H]12
MEASUREMENT_UNITS: mg/L
Minimum Inhibitory Concentration: 16
--
SMI: C[C@H]1[C@H](NC(=O)/C(=N\OC(C)(C)C(=O)O)c2csc(N)n2)C(=O)N1S(=O)(=O)O
MEASUREMENT_UNITS: mg/L
Minimum Inhibitory Concentration: 16

Here is another molecule to look at.
What value of Minimum Inhibitory Concentration has been recorded for this entry: C[C@@H](O)[C@H]1C(=O)N2C(C(=O)O)=C(SCCN=CN)C[C@H]12 4

----------
- Tested on: Pseudomonas aeruginosa (67/2B)2R.A. [DSM 18988]
- ASSAY_NOTES: MIC, broth microdilution (NCCLS M7-A6)
- Format: cell-based
- CONDITION: P. aeruginosa (67/2B)2R.A.; combinations of equal weights; IsoSensiTest Broth + 16 μg/mL 2,2'-bipyridyl
PROPERTY_MEASURED: Minimum Inhibitory Concentration

Look over these answered cases.
SMI: C[C@H]1[C@H](NC(=O)/C(=N/OCc2cc(=O)c(O)cn2O)c2cccs2)C(=O)N1S(=O)(=O)O
TEST_TARGET: Pseudomonas aeruginosa (67/2B)2R.A. [DSM 18988]
RESULT: >64 mg/L
//
SMI: C[C@H]1[C@H](NC(=O)/C(=N\OCc2cc(=O)c(O)cn2O)c2cccs2)C(=O)N1S(=O)(=O)O
TEST_TARGET: Pseudomonas aeruginosa (67/2B)2R.A. [DSM 18988]
RESULT: >64 mg/L

Could you now look at the following compound, please?
Record request: Minimum Inhibitory Concentration value, item C[C@@H](O)[C@H]1C(=O)N2C(C(=O)O)=C(S[C@@H]3CN[C@H](C(=O)Nc4cccc(C(=O)O)c4)C3)[C@H](C)[C@H]12 >32 mg/L
